Molecular target: recombinant DYRK1A kinase (Homo sapiens (Human))
Assay: DYRK1A kinase assay (Ser/Thr 18 peptide Z-lyte FRET assay)
Conditions: DYRK1A kinase activity; 15 μM ATP, 1 h room temperature; method text calls the value IC50
Endpoint name: EC50 (nM)

Use the examples below as a reference point.
c1cnc2ccc(-c3c[nH]c4nc(Nc5ccncc5)ncc34)cc2c1 : 0.8
COc1nc(N[C@H]2CC[C@@H](OC)CC2)nc2[nH]cc(-c3ccn4ncnc4c3)c12 : 1.2
CN1CCC(Nc2ncc3c(-c4cc5cnccc5s4)c[nH]c3n2)CC1 : 6.8
CO[C@H]1CC[C@H](Nc2ncc3c(-c4ccn5nccc5c4)c[nH]c3n2)CC1 : 1.9
C[C@H](Nc1ncc2c(-c3ccc4nnn(C)c4c3)c[nH]c2n1)C(F)(F)F : 43
CC(C)(C)CNc1ncc2c(-c3ccn4nccc4n3)c[nH]c2n1 : 19.1
CCO[C@H]1CC[C@@H](Nc2ncc3c(-c4ccc5nccn5n4)c[nH]c3n2)CC1 : 3
Cc1nc(OCC2CCN(C)CC2)c2c(-c3ccc4ncccc4c3)c[nH]c2n1 : 18.6

[I] COc1nc(N[C@H]2CC[C@H](OC)CC2)nc2[nH]cc(-c3ccn4nccc4c3)c12
[II] COc1nc(NCC(C)(C)F)nc2[nH]cc(-c3ccc4nccn4n3)c12
[III] COc1nc(N[C@@H]2CCOC[C@H]2O)nc2[nH]cc(-c3ccn4nccc4c3)c12
[IV] CN1CCC(CNc2ncc3c(-c4ccc5c(c4)OCCNC5=O)c[nH]c3n2)CC1
[V] FC(F)CNc1ncc2c(-c3ccc4ncnn4c3)c[nH]c2n1
[in] Ranking field: EC50; order: falling. Would you mind listing the labels in the order asked for?
[out] I, II, V, III, IV
